Listed here: items and their measured TGI.
# Tested on: U251 CNS
# assay.notes: NCI tumour cell line growth inhibition, 48 h
Kindly answer with a numeric value in µM, unit omitted.

These solved cases illustrate the format of a correct answer.
C=C1C(=O)OC2/C=C(/C)C3(O)OC(C)(CC(OC(=O)C(C)C)C12)CC3OC(C)=O (stereo not given): 38.2
CC1=C(C(=O)Nc2ccccc2)C(c2ccc(C3C(C(=O)Nc4ccccc4)=C(C)NC(C)=C3C(=O)Nc3ccccc3)cc2)C(C(=O)Nc2ccccc2)=C(C)N1: 3
O=C(Nc1ccc(Cl)c(Cl)c1)Nc1ccccc1O: 25.3
O=C1CC(Sc2nc3ccc(I)cc3c(=O)n2Cc2ccccc2)C(=O)NN1 (stereo not given): 29.4
O=C1C(Cl)=C(Nc2ccccc2O)C(=O)N1Cc1ccccc1: 36.5
COc1ccc(N=C2C(=S)N(c3ccc(OC)cc3)/C(=N/S(=O)(=O)c3ccccc3)N2c2ccccc2)cc1: 28.8
COc1ccc(/C=C(/c2ccccc2)[N+](=O)[O-])cc1: 3.21

// switching to the query molecule
Which TGI is reported for this molecule? OCCNCCOc1ccc(/C(=C(/Cl)c2ccccc2)c2ccccc2)cc1
21.1

Where do the numbers come from? From PubChem BioAssay (NCI).
